Entries and their measured remaining activity at 8 µM follow.
target: Ku complex (Homo sapiens, UniProt P12956+P13010); assay: microwell protein induced fluorescent enhancement assay (mwPIFE) of Ku-DNA binding; conditions: read-out: % binding at 8 µM (100% = 0.5% DMSO)
Sequence (P12956 whole entry): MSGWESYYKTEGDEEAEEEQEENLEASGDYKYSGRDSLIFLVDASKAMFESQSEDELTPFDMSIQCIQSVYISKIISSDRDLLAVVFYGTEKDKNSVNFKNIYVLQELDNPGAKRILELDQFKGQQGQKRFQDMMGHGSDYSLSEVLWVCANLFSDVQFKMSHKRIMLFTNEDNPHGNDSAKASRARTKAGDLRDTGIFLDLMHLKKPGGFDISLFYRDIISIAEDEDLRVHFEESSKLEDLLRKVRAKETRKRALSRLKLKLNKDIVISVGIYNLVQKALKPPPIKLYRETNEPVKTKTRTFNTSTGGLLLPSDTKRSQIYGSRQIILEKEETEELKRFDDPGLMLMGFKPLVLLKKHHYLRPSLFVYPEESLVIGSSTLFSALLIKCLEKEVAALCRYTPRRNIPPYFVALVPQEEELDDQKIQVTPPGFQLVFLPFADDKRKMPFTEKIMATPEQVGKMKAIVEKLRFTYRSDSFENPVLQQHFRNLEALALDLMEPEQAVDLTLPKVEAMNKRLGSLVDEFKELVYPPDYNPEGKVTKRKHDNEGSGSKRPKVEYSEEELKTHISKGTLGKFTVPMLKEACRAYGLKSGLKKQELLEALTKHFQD
Sequence (P13010 whole entry): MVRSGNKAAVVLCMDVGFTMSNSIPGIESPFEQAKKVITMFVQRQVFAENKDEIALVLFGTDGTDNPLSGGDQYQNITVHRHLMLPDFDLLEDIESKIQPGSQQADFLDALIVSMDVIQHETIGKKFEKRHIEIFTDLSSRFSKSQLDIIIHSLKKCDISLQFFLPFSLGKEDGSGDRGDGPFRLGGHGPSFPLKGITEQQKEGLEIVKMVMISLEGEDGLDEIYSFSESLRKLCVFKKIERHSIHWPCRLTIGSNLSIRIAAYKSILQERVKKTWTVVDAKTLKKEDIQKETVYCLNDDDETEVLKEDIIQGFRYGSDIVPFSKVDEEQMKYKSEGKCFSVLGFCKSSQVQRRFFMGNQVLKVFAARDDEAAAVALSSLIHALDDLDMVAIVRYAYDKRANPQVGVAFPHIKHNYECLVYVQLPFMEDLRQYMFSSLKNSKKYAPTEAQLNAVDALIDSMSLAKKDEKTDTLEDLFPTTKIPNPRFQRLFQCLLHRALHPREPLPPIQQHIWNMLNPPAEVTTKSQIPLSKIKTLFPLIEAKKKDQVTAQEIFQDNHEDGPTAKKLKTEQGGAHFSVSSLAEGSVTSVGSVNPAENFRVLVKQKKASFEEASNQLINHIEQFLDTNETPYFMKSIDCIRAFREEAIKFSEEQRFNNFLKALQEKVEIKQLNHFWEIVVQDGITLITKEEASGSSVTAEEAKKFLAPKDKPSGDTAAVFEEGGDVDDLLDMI

Guide cases for remaining activity at 8 µM, answers given:
compound="CC(=O)NCCc1ccc(-c2csc(NC(=O)c3cncc(Br)c3)n2)cc1 [Compound 5]" resultvalue=75%
compound="O=C(Nc1nc(-c2ccccn2)cs1)c1ccc(NC2CC2)nc1 [Compound 4]" resultvalue=47%
compound="CC(=O)Nc1ccc(-c2csc(NC(=O)c3cncc(Br)c3)n2)cc1 [Compound 6]" resultvalue=55%

Fill in the blank: the reported remaining activity at 8 µM of O=C(Nc1nc(-c2ccccc2)cs1)c1cncc(Br)c1 [Compound 8] is ____.
71%

Fill in the blank: the reported remaining activity at 8 µM of O=C(Nc1nc(-c2ccccn2)cs1)c1cncc(Br)c1 [Compound 1] is ____.
5%

Fill in the blank: the reported remaining activity at 8 µM of O=C(Nc1nc(-c2cccnc2)cs1)c1cncc(Br)c1 [Compound 7] is ____.
55%

Data provenance is patent EP4342467A1.
